Values from ChEMBL document CHEMBL3632536

- System: SH-SY5Y
- test_description: Ionophoric activity in human SH-SY5Y cells assessed as increase in cellular Zn uptake at 20 uM after 6 hrs by ICP-MS analysis relative to vehicle-treated control
- Assay type: functional
The source made the active and inactive calls. The calls are words filed in the database; no cut-off is given here.
Output constraint: value belongs to active, inactive

Oc1cc(F)cc2cccnc12 :: inactive
Oc1cccc2cc[nH]c12 :: inactive
Oc1ccc(F)c2cccnc12 :: inactive
Oc1cccc2ccc(F)nc12 :: inactive
COc1cccc2ccc(Cl)nc12 :: inactive

[in] Record request — test call for `Oc1ccccc1/N=C/c1ccc(F)cc1`
[out] inactive

[in] Record request — test call for `CN(C)Cc1ccc2c(Cl)cc(Cl)c(O)c2n1`
[out] active

[in] Record request — test call for `Oc1cccc2nccnc12`
[out] inactive

[in] Record request — test call for `Oc1cccc2cc(F)cnc12`
[out] inactive

[in] Record request — test call for `Oc1c(F)ccc2cccnc12`
[out] inactive

[in] Record request — test call for `Oc1cccc2cccnc12`
[out] inactive

[in] Record request — test call for Oc1c(I)cc(Cl)c2cccnc12 [CLIOQUINOL]
[out] active

* * *

- System: SH-SY5Y
- test_description: Ionophoric activity in human SH-SY5Y cells assessed as increase in cellular Cu uptake at 20 uM after 6 hrs by ICP-MS analysis relative to vehicle-treated control
- Assay type: functional
Activity calls are given as the source filed them. The calls are words filed in the database; no cut-off is given here.
Output constraint: value belongs to active, inactive

Oc1cccc2cccnc12 :: active

[in] Record request — test call for `CN(C)Cc1ccc2c(Cl)cc(Cl)c(O)c2n1`
[out] active

[in] Record request — test call for `Oc1cc(F)cc2cccnc12`
[out] active

[in] Record request — test call for `Oc1ccc(F)c2cccnc12`
[out] active

[in] Record request — test call for `Oc1cccc2ccc(F)nc12`
[out] inactive

[in] Record request — test call for Oc1c(I)cc(Cl)c2cccnc12 [CLIOQUINOL]
[out] active

[in] Record request — test call for `Oc1cccc2cc(F)cnc12`
[out] active

[in] Record request — test call for `Oc1c(F)ccc2cccnc12`
[out] active

[in] Record request — test call for `Oc1c(Cl)cc(Cl)c2ccc(COCCCCF)nc12`
[out] active
